Source listed as patent US9993566B2.

# Assay Target: T1, SEZ6 ECD (Homo sapiens, UniProt Q53EL9)
# T1 construct: SEZ6 extracellular domain (amino acids 1-904); expressed in transfected cells; host or cells: yeast (surface display, Cochran et al. protocol)
# T1 sequence (Q53EL9 20-923): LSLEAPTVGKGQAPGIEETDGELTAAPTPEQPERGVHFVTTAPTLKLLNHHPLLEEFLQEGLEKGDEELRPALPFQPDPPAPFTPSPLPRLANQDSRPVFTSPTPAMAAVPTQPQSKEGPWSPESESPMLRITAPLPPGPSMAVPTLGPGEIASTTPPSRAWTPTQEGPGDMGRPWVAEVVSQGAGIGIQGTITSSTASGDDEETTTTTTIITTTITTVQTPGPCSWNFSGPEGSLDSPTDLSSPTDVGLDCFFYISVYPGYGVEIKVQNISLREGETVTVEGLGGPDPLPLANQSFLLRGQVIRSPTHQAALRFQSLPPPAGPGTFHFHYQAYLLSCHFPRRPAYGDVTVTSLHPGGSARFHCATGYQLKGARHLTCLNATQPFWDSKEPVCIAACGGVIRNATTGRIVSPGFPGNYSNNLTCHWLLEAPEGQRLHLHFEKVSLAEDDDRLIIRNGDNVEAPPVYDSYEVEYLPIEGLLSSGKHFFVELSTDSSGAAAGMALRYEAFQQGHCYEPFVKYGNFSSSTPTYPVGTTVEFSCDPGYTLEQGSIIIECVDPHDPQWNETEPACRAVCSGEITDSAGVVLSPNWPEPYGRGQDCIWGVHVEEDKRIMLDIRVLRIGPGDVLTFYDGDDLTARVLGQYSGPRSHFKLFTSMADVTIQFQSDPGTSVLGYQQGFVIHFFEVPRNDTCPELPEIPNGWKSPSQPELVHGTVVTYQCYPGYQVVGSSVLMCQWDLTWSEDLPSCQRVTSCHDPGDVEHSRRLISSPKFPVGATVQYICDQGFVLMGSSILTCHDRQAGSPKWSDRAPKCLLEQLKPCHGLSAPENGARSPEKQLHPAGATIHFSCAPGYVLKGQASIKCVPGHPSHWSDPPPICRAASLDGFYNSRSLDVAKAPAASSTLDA
# Method: Fine epitope mapping (phage display peptide library or yeast-displayed SEZ6 ECD mutants)
# Assay type: binding
# Experimental Setup: epitope conformational (discontinuous) or linear

Molecule	Discontinuous
SC17.166: murine anti-SEZ6 antibody (antibody, V domains shown, Murine SC17.166 VH; Murine SC17.166 VL, murine anti-SEZ6 antibody) VH: EVQLQQSGPELMKPGASVKMSCKASGYIFTDYNMHWVKQNQGKSLEWIGEVNPNTGGIGYNQKFKGKATLTVDKSSSTAYMDLRSLTSEDSAVYYCARDGNYCFDYWGQGTTLTVSS VL: QIVLTQSPAIMSASPGEKVTMTCSASSSISYMHWYQQKSGTSPKRWIYDTSKLASGVPARFSGSGSGTSYSLTISNMEAEDAATYYCQQWSSTPPTFGGGTKLEIK	Yes
SC17.17: murine anti-SEZ6 antibody (antibody, V domains shown, Murine SC17.17 VH; Murine SC17.17 VL, murine anti-SEZ6 antibody) VH: EVQLQQSGPEVMKPGASVKMSCKASGYTFTDYNMHWVKQNQGKSLEWIGEINPNIGGTGYNQKFKGKATLTVHKSSSTAYMELRSLTSEDSAVYYCARTYSYYSYEFAYWGQGTLVTVSA VL: QIVLTQSPAIMSASPGEKVTMTCSASSSVSYMHWYQQKSGTSPKRWIYDTSKLPSGVPARFSGSGSGTSYSLTISSMEAEDAATYYCQQWSSTPPTFGAGTKLELK	Yes
SC17.4: murine anti-SEZ6 antibody (antibody, V domains shown, Murine SC17.4 VH; Murine SC17.4 VL, murine anti-SEZ6 antibody) VH: QIQLVQSGPELKKPGETVKISCKASGYTFTDYSMHWVKQAPGKGLKWLGWINTETGEPTYSEDFKGRFAFSLETSASTAYLQINNLKNEDTATYFCVKNKGWFAYWGQGTLVTVSA VL: DIKMTQSPSSMYASLGERVTITCKASQDINSYLTWFQQKPGKSPKTLIYRANRLIDGVPSRFSGSGSGQDYSLTISSLDYEDMGIYYCLQYDDFPWTFGGGTKLEIK	No
SC17.140: murine anti-SEZ6 antibody (antibody, V domains shown, Murine SC17.140 VH; Murine SC17.140 VL, murine anti-SEZ6 antibody) VH: EVQLQQSGPELMKPGASVKMSCKASGYTFTDYNMHWVKQNQGKSLEWIGEINPNTGGTGYNQKFKGKATLTVDKFSSTAFIELRSLTSEDSAIYYCTRGGYDHYWYFDVWGAGTTVTVSS VL: QIVLTQSPAIMSASPGEKVTMTCSASSSVSYMHWYQQKSGTSPKRWIYDTSKLASGVPARFSGSGSGTSYSLTISSMEAEDAATYYCQQWSSTPPTFGSGTKLEIK	Yes
